Provenance of the data: PubChem BioAssay AID463203

target: Glycogen synthase kinase-3 alpha (Homo sapiens); assay: concentration-response blocking of human GSK3A – biochemical, luminescence, cell-free homogeneous, retest, dose response (AID 463203); conditions: GSK-3 alpha enzyme, ADP-Glo luminescence, 60 min
Activity calls are given as the source filed them.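 The calls were made as follows: active = more than half of replicate measurements showing over 20% loss of kinase signal relative to plate controls; inconclusive = some but at most half of replicates over 20% loss; inactive = no replicate over 20% signal loss.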
// classify into active, inactive

// below: answered compounds
Ask: Name the outcome recorded for CCC(Sc1ccc2nnc(-c3cccnc3)n2n1)C(=O)O (configuration not stated) in the assay.
Reply: inactive

Ask: Name the outcome recorded for `NC(=O)c1ccsc1NC(=O)C1CC1` in the assay.
Reply: inactive

Ask: Name the outcome recorded for CCOC(=O)/C(C#N)=C1/SC(CCO)C(=O)N1c1ccccc1 (configuration not stated) in the assay.
Reply: active

Ask: Name the outcome recorded for `CCCCn1c(O)c(C(C)=NCCCn2ccnc2)c(=O)[nH]c1=O` in the assay.
Reply: active

Ask: Name the outcome recorded for `O=C(NCCN1CCN(Cc2ccccc2Cl)CC1)Nc1ccccc1` in the assay.
Reply: inactive

***
Ask: Name the outcome recorded for `CC1(C)CC(=O)C(C(c2cccnc2)C2C(=O)CC(C)(C)CC2=O)C(=O)C1` in the assay.
Reply: inactive

Ask: Name the outcome recorded for `CN(C)/C=C/c1[nH]c(=O)[nH]c(=O)c1[N+](=O)[O-]` in the assay.
Reply: inactive

Ask: Name the outcome recorded for `Cc1[nH]c2ccccc2c1N=Nc1cccc(C(=O)O)c1` in the assay.
Reply: inactive

Ask: Name the outcome recorded for `COc1ccc(-c2cc(=O)c3ccccc3s2)cc1` in the assay.
Reply: inactive
